For each entry below, report its AC50 value.
- target.or.system: human PAH with the R408W mutation (Homo sapiens, UniProt P00439, R408W)
- Construct: expressed in transfected cells
- Sequence (P00439 whole entry R408W): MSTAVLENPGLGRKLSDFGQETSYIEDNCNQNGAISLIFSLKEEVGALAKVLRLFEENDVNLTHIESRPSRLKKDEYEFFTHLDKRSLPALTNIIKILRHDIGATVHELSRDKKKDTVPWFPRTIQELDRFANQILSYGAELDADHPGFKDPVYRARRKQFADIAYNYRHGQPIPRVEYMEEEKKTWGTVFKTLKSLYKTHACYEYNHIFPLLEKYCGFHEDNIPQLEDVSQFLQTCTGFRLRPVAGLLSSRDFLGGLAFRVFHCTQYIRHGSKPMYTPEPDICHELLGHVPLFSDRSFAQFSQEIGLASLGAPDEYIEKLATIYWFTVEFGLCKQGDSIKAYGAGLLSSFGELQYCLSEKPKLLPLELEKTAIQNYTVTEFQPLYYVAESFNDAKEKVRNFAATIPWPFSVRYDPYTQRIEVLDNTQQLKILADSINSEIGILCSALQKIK
- assay.text: Cell Based Phenylalanine Flux Assay
- condition.description: A375 cells expressing human R408W PAH; 24 hrs compound incubation; 13C-Tyrosine by LC-MS; average where tested multiple times; read-out: AC50

Please fill in: AC50 reported for Cc1cccn2nc([C@@H]3c4nc[nH]c4CCN3C(=O)c3nnc(-c4cnn(C)c4C)o3)cc12 [Example 988] = < 500 nM

Please fill in: AC50 reported for Cc1ccn2nc([C@@H]3c4nc[nH]c4CCN3C(=O)c3nc(C(F)F)nn3C)cc2c1 [Example 1049] = 500 to 1000 nM

Please fill in: AC50 reported for Cc1ccc2c(C(=O)N3CCc4[nH]cnc4[C@H]3c3cc4c(F)cccn4n3)cnn2c1 [Example 1670] = 500 to 1000 nM

Please fill in: AC50 reported for O=C(c1ocnc1C(F)(F)F)N1CCc2[nH]cnc2[C@H]1c1cc2ccccn2n1 [Example 610] = < 500 nM

Please fill in: AC50 reported for Cc1cccc2cc([C@@H]3c4nc[nH]c4CCN3c3nnc(-c4ccccn4)o3)nn12 [Example 1640] = 500 to 1000 nM

Please fill in: AC50 reported for Cc1cccn2nc([C@@H]3c4nc[nH]c4CCN3C(=O)c3nnc(-c4cnn(C(F)(F)F)c4)o3)cc12 [Example 1472] = 500 to 1000 nM

Please fill in: AC50 reported for N#Cc1ncoc1C(=O)N1CCc2[nH]cnc2[C@@H]1c1cc2ccc(Br)cn2n1 [Example 683] = > 5000 nM

Please fill in: AC50 reported for O=C(c1nnc(-c2ccn(C(F)(F)F)n2)o1)N1CCc2[nH]cnc2[C@H]1c1cc2cccc(C(F)(F)F)n2n1 [Example 1542] = 500 to 1000 nM

Please fill in: AC50 reported for Cc1cccn2nc([C@H]3c4nc[nH]c4CCN3c3nnc(C4CC4)o3)cc12 [Example 1588] = > 5000 nM

Please fill in: AC50 reported for Cn1ncnc1C(=O)N1CCc2[nH]cnc2[C@H]1c1cc2cccc(C(F)(F)F)n2n1 [Example 1144] = 500 to 1000 nM

Please fill in: AC50 reported for CC(C)(C)c1nnc(C(=O)N2CCc3[nH]cnc3[C@@H]2c2cc3cccc(C(F)F)n3n2)o1 [Example 1418] = 1000 to 5000 nM

Please fill in: AC50 reported for CC(C)(O)c1nc(C(F)(F)F)c(C(=O)N2CCc3[nH]cnc3[C@H]2c2cc3cccc(C(F)(F)F)n3n2)o1 [Example 1178] = < 500 nM

Please fill in: AC50 reported for O=C(c1nnc(-c2ccc(F)cc2F)o1)N1CCc2[nH]cnc2[C@H]1c1cc2ccccn2n1 [Example 652] = < 500 nM

Please fill in: AC50 reported for COc1ccc(-c2nnc(C(=O)N3CCc4[nH]cnc4[C@H]3c3cc4cccc(C(F)F)n4n3)o2)nc1 [Example 1578] = 500 to 1000 nM

Please fill in: AC50 reported for Cc1nc(C(C)(C)O)oc1C(=O)N1CCc2[nH]cnc2[C@H]1c1cc2c(Cl)cccn2n1 [Example 724] = < 500 nM

====

- target.or.system: human PAH with the R408W mutation (Homo sapiens, UniProt P00439, R408W)
- Construct: expressed in transfected cells
- assay.text: Cell Based Phenylalanine Flux Assay;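 further: after compound treatment, cells received sepiapterin plus isotope-labelled Phenylalanine for 4 hours, then labelled Tyrosine in the medium was quantified, 10-point 2-fold dilution series run in duplicate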
- condition.description: A375 cells expressing R408W PAH; 24 hrs with compound, then 20 µM sepiapterin and 800 µM 13C9,15N-Phenylalanine for 4 hours; 13C-Tyrosine by LC-MS; average where tested multiple times; read-out: AC50
For each entry below, report its AC50 value.

Please fill in: AC50 reported for c1cncc(-c2nnc(N3CCc4[nH]cnc4C3c3cc4ccccn4n3)o2)c1 (stereo not drawn) = > 5 µM

Please fill in: AC50 reported for CC(C)(O)c1nnc(C(=O)N2CCc3[nH]cnc3C2c2cc3cccc(C(F)(F)F)n3n2)o1 (stereo not drawn) = 1 to 5 µM

Please fill in: AC50 reported for Cc1cccn2nc(C3c4nc[nH]c4CCN3C(=O)c3nnc(-c4cn[nH]c4)o3)cc12 (stereo not drawn) = > 5 µM

Please fill in: AC50 reported for Cc1nnc(N2CCc3[nH]cnc3[C@H]2c2cc3c(F)cccn3n2)o1 (single isomer, unassigned) = 1 to 5 µM

Please fill in: AC50 reported for COc1cccn2nc(C3c4nc[nH]c4CCN3C(=O)c3nnc(-c4ccn(C)n4)o3)cc12 (single isomer, unassigned) = > 5 µM

Please fill in: AC50 reported for O=C(c1nnc(C2CC(F)(F)C2)o1)N1CCc2[nH]cnc2C1c1cc2cccc(Cl)n2n1 (stereo not drawn) = > 5 µM

Please fill in: AC50 reported for COCc1ccc2c(C(=O)N3CCc4[nH]cnc4[C@H]3c3cc4cccc(F)n4n3)cnn2c1 (single isomer, unassigned) = 1 to 5 µM

Please fill in: AC50 reported for FC(F)c1cccn2nc(C3c4nc[nH]c4CCN3c3nc4ccccc4o3)cc12 (stereo not drawn) = > 5 µM

Please fill in: AC50 reported for O=C(c1nnc(C2CC2)o1)N1CCc2[nH]cnc2C1c1cc2cc(C(F)(F)F)ccn2n1 (stereo not drawn) = 1 to 5 µM

Please fill in: AC50 reported for Cn1cc(N2CCc3[nH]cnc3[C@H]2c2cc3ccccn3n2)cn1 (single isomer, unassigned) = > 5 µM

Please fill in: AC50 reported for Cc1cccn2nc(C3c4nc[nH]c4CCN3C(=O)c3cc(C(C)(C)C)nn3C)cc12 (stereo not drawn) = 1 to 5 µM

Please fill in: AC50 reported for Cc1ccn2nc(C3c4nc[nH]c4CCN3C(=O)c3nnc(C)o3)cc2c1 (stereo not drawn) = > 5 µM

Please fill in: AC50 reported for Cc1cccn2nc(C3c4nc[nH]c4CCN3c3nnc(-c4ccncn4)o3)cc12 (stereo not drawn) = > 5 µM

Please fill in: AC50 reported for Cn1ccc(-c2nnc(C(=O)N3CCc4[nH]cnc4C3c3cc4cc(F)ccn4n3)o2)n1 (stereo not drawn) = 1 to 5 µM

Please fill in: AC50 reported for Cc1c(C2c3nc[nH]c3CCN2C(=O)c2nnc(-c3cnn(C)c3C)o2)nn2ccccc12 (stereo not drawn) = 1 to 5 µM

Please fill in: AC50 reported for FC(F)c1nnc(N2CCc3[nH]cnc3C2c2cc3cccc(C(F)(F)F)n3n2)o1 (stereo not drawn) = 1 to 5 µM

Please fill in: AC50 reported for CC(C)(F)c1nnc(C(=O)N2CCc3[nH]cnc3C2c2cc3ccccn3n2)o1 (stereo not drawn) = 1 to 5 µM

Please fill in: AC50 reported for Cc1cccc2cc(C3c4nc[nH]c4CCN3c3nnc(-c4cnccn4)o3)nn12 (stereo not drawn) = > 5 µM

Please fill in: AC50 reported for Cn1cncc1-c1nnc(C(=O)N2CCc3[nH]cnc3C2c2cc3c(C(F)F)cccn3n2)o1 (stereo not drawn) = 1 to 5 µM

Please fill in: AC50 reported for N#Cc1ncoc1C(=O)N1CCc2[nH]cnc2[C@@H]1c1nn2ccccc2c1Br (single isomer, unassigned) = 1 to 5 µM

Please fill in: AC50 reported for Cc1ccn2nc(C3c4nc[nH]c4CCN3C(=O)c3nnc(-c4cnn(C)c4)o3)cc2c1 (stereo not drawn) = 1 to 5 µM
